- experiment-summary: self-splicing fitness, log relative to wild type (ln ratio); higher = more splicing; Tetrahymena group I intron in knt gene, E. coli kanamycin selection, DiMSum; sequences stand for … in CUCUCU…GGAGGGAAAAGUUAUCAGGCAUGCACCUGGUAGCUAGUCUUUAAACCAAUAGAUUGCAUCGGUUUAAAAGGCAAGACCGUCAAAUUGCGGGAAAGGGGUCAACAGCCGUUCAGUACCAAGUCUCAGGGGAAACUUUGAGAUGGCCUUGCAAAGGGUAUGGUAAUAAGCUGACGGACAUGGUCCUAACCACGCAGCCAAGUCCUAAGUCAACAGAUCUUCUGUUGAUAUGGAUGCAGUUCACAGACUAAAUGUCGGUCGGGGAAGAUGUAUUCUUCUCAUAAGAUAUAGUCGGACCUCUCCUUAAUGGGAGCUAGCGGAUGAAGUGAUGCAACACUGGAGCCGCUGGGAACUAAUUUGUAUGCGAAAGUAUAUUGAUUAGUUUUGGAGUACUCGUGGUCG;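 note: selection with 25 µg/mL kanamycin versus none on LB agar overnight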
- condition-description: 37 °C
property-name: self-splicing fitness (ln)
// no unit, no text: just the number

Please give the measured self-splicing fitness (ln) for this sequence: `AAAUAGCAAUAUUACGAUCA` 0.0414

Value lookup for self-splicing fitness (ln); key = `GGCAAGCAAUAUUACGCUUG` -3.49

Entry `UUGUAGCAAUAUUACGCACA` : reported self-splicing fitness (ln) = ? -0.658

self-splicing fitness (ln) lookup needed for `UCUAAGCAAUAUUACGGACU` , thanks. -2.84

Entry `GGUCAGCAAUAUUACGCCAU` has what self-splicing fitness (ln)? -0.853

Item under review: `AGUGAGCAAUAUUACGAGGG` . Reported self-splicing fitness (ln)? -2.13

What value of self-splicing fitness (ln) has been recorded for this entry: `GCGAAGCAAUAUUACGGAGU` -3.43

What self-splicing fitness (ln) value was documented for this sequence, `UGGCAGCAAUAUUACGCUGA` ? -1.17

Any idea what self-splicing fitness (ln) was measured for `CGUCAGCAAUAUUACGAUUU` ? -1.11

I'd like to know its self-splicing fitness (ln). The sequence in question is `CUAUAGCAAUAUUACGUCGG` -1.33

Which self-splicing fitness (ln) is reported for this sequence? `GCAGAGCAAUAUUACGCACC` -1.17

What does the data say about its self-splicing fitness (ln)? Entry: `UUAAAGCAAUAUUACGCUCU` 0.21

Sample `UGCGAGCAAUAUUACGGAGU` — what was its self-splicing fitness (ln)? -2.08

What value of self-splicing fitness (ln) has been reported for the following sequence? `CGUCAGCAAUAUUACGCUCA` 0.0237

Recorded self-splicing fitness (ln) for `AGACAGCAAUAUUACGCUCC` , please? -1.64

So what does the record say about self-splicing fitness (ln) for `CCGGAGCAAUAUUACGGGAU` ? -2.44

Fill in: self-splicing fitness (ln) of `CCGCAGCAAUAUUACGUUCA` is ___ -2

Give the measured self-splicing fitness (ln) of `GCAGAGCAAUAUUACGACGC` . -1.69

Which value of self-splicing fitness (ln) has been reported for `GAUCAGCAAUAUUACGACAG` in the records? -1.49

self-splicing fitness (ln) for `GGUAAGCAAUAUUACGUAAU` ? -0.781

// query self-splicing fitness (ln) value for entry `GGGGAGCAAUAUUACGUCAA` -3.16

Which self-splicing fitness (ln) is listed for `GAUAAGCAAUAUUACGUUCG` ? -1.05

Reported self-splicing fitness (ln) for `UCACAGCAAUAUUACGGUGU` : what is it? -2.23

What value of self-splicing fitness (ln) has been reported for the following sequence? `GUUCAGCAAUAUUACGUGCA` -0.382

self-splicing fitness (ln) lookup needed for `UGUCAGCAAUAUUACGUUAA` , thanks. -0.411

So what does the record say about self-splicing fitness (ln) for `UCCUAGCAAUAUUACGUGAG` ? -1.94

Returns the measured self-splicing fitness (ln) for the input sequence. Input: `GAACAGCAAUAUUACGUUCA` -1.49

Sample `GGUGAGCAAUAUUACGACGA` — what was its self-splicing fitness (ln)? -0.954

Fill in the blank: the reported self-splicing fitness (ln) of `CGUGAGCAAUAUUACGAGAG` is ____. -2.64

Please give the measured self-splicing fitness (ln) for this sequence: `ACCCAGCAAUAUUACGACAU` -0.241

Given the sequence `UCCUAGCAAUAUUACGCUGU` , what is its reported self-splicing fitness (ln)? -2.23

Reported self-splicing fitness (ln) for `GUAGAGCAAUAUUACGCAAA` : what is it? -1.59

Requested field: self-splicing fitness (ln). Item: `CUCAAGCAAUAUUACGCCAA` -2.37

Please give the measured self-splicing fitness (ln) for this sequence: `GAAAAGCAAUAUUACGUGGG` -1.29

For `UUUGAGCAAUAUUACGAUUU` , what is its reported self-splicing fitness (ln)? -2.05

// returns reported self-splicing fitness (ln) for input `CAUCAGCAAUAUUACGCCUU` -0.379

What does the data say about its self-splicing fitness (ln)? Entry: `GGUCAGCAAUAUUACGUCGG` -0.891

Item under review: `AAACAGCAAUAUUACGAUGU` . Reported self-splicing fitness (ln)? -0.715

GET /values?readout=self-splicing fitness (ln)&item= `GGUUAGCAAUAUUACGAGGG` -2.28

Requested read-out: self-splicing fitness (ln). Entry: `UCUAAGCAAUAUUACGGGUA` -0.58

Look up self-splicing fitness (ln) for this sequence: `AUAGAGCAAUAUUACGAUCU` -0.042

Item `GGGAAGCAAUAUUACGUAGU` has what recorded self-splicing fitness (ln)? -2.18

Consider the sequence `AGAUAGCAAUAUUACGGGUU` and give its measured self-splicing fitness (ln). -2.29

Please report the recorded self-splicing fitness (ln) for `GUAUAGCAAUAUUACGCUGU` . -2.48

Item under review: `CCGCAGCAAUAUUACGGCAU` . Reported self-splicing fitness (ln)? -2.38

self-splicing fitness (ln) for `ACGGAGCAAUAUUACGGCCU` ? -1.2

Name the reported self-splicing fitness (ln) value associated with the sequence `UGUGAGCAAUAUUACGCAUA` -2.46

Dear colleague, I am looking for the recorded self-splicing fitness (ln) of the following sequence: `GCGUAGCAAUAUUACGCUCU` -1.59

Bench note: what self-splicing fitness (ln) did `CCCUAGCAAUAUUACGUUGA` show? -2.83

Given the sequence `GCCAAGCAAUAUUACGCAUA` , what is its reported self-splicing fitness (ln)? -0.709

Which value of self-splicing fitness (ln) has been reported for `ACGCAGCAAUAUUACGAUGU` in the records? -1.16

Returns the measured self-splicing fitness (ln) for the input sequence. Input: `CCCAAGCAAUAUUACGUCAC` -2.82

Sample `CGUGAGCAAUAUUACGUUAU` — what was its self-splicing fitness (ln)? -2.38

Bench note: what self-splicing fitness (ln) did `UGGCAGCAAUAUUACGUACU` show? 0.181

Dear colleague, I am looking for the recorded self-splicing fitness (ln) of the following sequence: `AUGGAGCAAUAUUACGGAAC` -1.21

State the recorded self-splicing fitness (ln) for this entry: `ACUCAGCAAUAUUACGGCCC` -0.343

* * *

- experiment-summary: self-splicing fitness, log relative to wild type (ln ratio); higher = more splicing; Tetrahymena group I intron in knt gene, E. coli kanamycin selection, DiMSum; sequences stand for … in CUCUCU…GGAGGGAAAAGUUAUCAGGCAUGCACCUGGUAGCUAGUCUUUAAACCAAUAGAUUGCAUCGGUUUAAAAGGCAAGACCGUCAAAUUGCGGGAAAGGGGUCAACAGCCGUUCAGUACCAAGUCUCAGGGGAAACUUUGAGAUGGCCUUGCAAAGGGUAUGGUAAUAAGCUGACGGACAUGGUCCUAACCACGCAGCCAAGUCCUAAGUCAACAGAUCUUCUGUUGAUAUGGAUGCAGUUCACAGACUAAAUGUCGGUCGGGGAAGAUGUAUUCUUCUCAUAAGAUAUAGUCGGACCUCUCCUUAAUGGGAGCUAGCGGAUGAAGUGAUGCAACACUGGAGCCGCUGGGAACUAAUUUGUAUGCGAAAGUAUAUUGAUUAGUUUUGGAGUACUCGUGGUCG
- condition-description: 37 °C
I would appreciate it if you labelled entries T when self-splicing fitness (ln) is -1 or higher, otherwise F.

Please check the record `UCAGAGCAAUAUUACGACAA` and state if its self-splicing fitness (ln) is at or above -1. F

Record `GUGAAGCAAUAUUACGCUUG` ; criterion: self-splicing fitness (ln) no lower than -1. Met? T

Decide: is the reported value of self-splicing fitness (ln) for `UCCCAGCAAUAUUACGUGUA` equal to or greater than -1? T

Given the entry `GCAGAGCAAUAUUACGAUAA` , answer whether its self-splicing fitness (ln) meets or surpasses -1. F

Is the recorded value of self-splicing fitness (ln) equal to or greater than -1 for this sequence? `AUGUAGCAAUAUUACGUAUG` F

// inclusive: self-splicing fitness (ln) at least -1? input: `UAGUAGCAAUAUUACGUGGG` F

Hi, just wondering whether `ACCCAGCAAUAUUACGUCUU` shows self-splicing fitness (ln) of -1 or higher. T

Assess whether reported self-splicing fitness (ln) for `UCUUAGCAAUAUUACGGUAC` sits at -1 or higher. F

Kindly determine if self-splicing fitness (ln) recorded for `CGUGAGCAAUAUUACGGUCA` is above or exactly -1. F

Given `AGUGAGCAAUAUUACGAGGA` , state whether its self-splicing fitness (ln) is at least -1. F

Assess whether reported self-splicing fitness (ln) for `GCCAAGCAAUAUUACGAGCA` sits at -1 or higher. F

self-splicing fitness (ln) >= -1 for `AAAGAGCAAUAUUACGGGCU` ? F

Does `ACGCAGCAAUAUUACGGUCG` have a reported self-splicing fitness (ln) of at least -1? T

Is the recorded value of self-splicing fitness (ln) equal to or greater than -1 for this sequence? `ACCUAGCAAUAUUACGUAUU` F

// inclusive: self-splicing fitness (ln) at least -1? input: `UGUCAGCAAUAUUACGUGGC` F

For this sequence, is measured self-splicing fitness (ln) -1 or higher? `CCGAAGCAAUAUUACGAUAC` F

Please indicate if the recorded self-splicing fitness (ln) for `GUAGAGCAAUAUUACGAUCG` meets or exceeds -1. T

Reported self-splicing fitness (ln) at or above -1? `UACCAGCAAUAUUACGAGCU` F

Hello, I need to know if `AAACAGCAAUAUUACGAAUG` has measured self-splicing fitness (ln) not below -1. Thanks! F

Does self-splicing fitness (ln) meet or surpass -1 for `AAAAAGCAAUAUUACGAGAG` ? F

For this sequence, is measured self-splicing fitness (ln) -1 or higher? `UCCAAGCAAUAUUACGACAA` F

Hello, I need to know if `CUCAAGCAAUAUUACGAGGC` has measured self-splicing fitness (ln) not below -1. Thanks! F

Does the sequence `AUGUAGCAAUAUUACGAAGC` have recorded self-splicing fitness (ln) that is -1 or more? T

Evaluate `UACCAGCAAUAUUACGACCG` : self-splicing fitness (ln) at minimum -1? T

Hi team, for `CGUCAGCAAUAUUACGCUAC` , is the recorded self-splicing fitness (ln) at or above -1? T

Check this sequence for self-splicing fitness (ln) at or above -1: `UAUGAGCAAUAUUACGCAUG` F

Does the reported self-splicing fitness (ln) for `UCGGAGCAAUAUUACGAUAC` fall at or above the -1 mark? T

Is reported self-splicing fitness (ln) greater than or equal to -1 here: `CGGUAGCAAUAUUACGGGAA` F

Does the reported self-splicing fitness (ln) for `GCAAAGCAAUAUUACGAACG` fall at or above the -1 mark? T

Identify whether the reported self-splicing fitness (ln) of the following sequence is -1 or greater: `GAGGAGCAAUAUUACGUGCA` F
